B1: TFE3 (parent)
chain: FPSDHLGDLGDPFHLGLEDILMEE

- Variants of: B1
- Assay remarks: protein stability index of a GFP-peptide fusion (GPS, HEK-293T) (PSI 1-6); higher = more stable;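 also: lentivirally expressed fusions sorted by FACS into six bins by GFP to DsRed ratio, PSI derived from sequencing read proportions per bin multiplied by bin number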
- Condition set: c terminus: a fixed tail appended
Property: protein stability index

[ask] Please report the recorded protein stability index for M22V .
[reply] 3.08

[ask] Please report the recorded protein stability index for D8I .
[reply] 3.03

[ask] Please report the recorded protein stability index for L15I .
[reply] 3.05
